- Target desc: CXCR2 (Homo sapiens, UniProt P25025)
- Construct: expressed in transfected cells
- Sequence (P25025 1-360): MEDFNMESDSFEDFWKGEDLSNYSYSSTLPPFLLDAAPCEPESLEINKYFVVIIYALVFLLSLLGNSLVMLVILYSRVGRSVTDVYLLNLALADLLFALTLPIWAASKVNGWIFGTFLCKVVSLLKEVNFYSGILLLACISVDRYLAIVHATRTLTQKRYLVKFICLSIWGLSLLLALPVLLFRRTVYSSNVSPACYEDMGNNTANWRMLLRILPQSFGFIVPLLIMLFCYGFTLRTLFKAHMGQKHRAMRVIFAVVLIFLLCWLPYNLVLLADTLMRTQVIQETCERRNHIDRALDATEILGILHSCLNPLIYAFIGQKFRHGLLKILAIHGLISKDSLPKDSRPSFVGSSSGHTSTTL
- Assay name: NanoBRET β-arrestin1 recruitment inhibition assay (NanoLux) in HEK293A cells
- Type: cell-based
- Experimental context: CXCL7 at EC80; normalized to Imax of navarixin = 100%; n = 3
Test readout: Imax βarr1 (maximum observed inhibitory effect) (%)

[[record]]
molecule = "C[C@H](CO)Nc1nc(SCc2cccc(Cl)c2F)nc2[nH]c(=O)sc12 [AZ10397767, reference compound]"
target_desc = "CXCR2 (Homo sapiens, UniProt P25025)"
observed_value = 100

[[record]]
molecule = "CC(CO)Nc1nc(SCc2cccc(F)c2F)nc2oncc12 (centres unmarked)"
target_desc = "CXCR2 (Homo sapiens, UniProt P25025)"
observed_value = 100

[[record]]
molecule = "CC(CO)Nc1nc(SCc2cccc(F)c2F)nc2[nH]cnc12 (centres unmarked)"
target_desc = "CXCR2 (Homo sapiens, UniProt P25025)"
observed_value = 100

[[record]]
molecule = "CC(CCO)Nc1nc(SCc2cccc(F)c2F)nc2[nH]nnc12 (centres unmarked)"
target_desc = "CXCR2 (Homo sapiens, UniProt P25025)"
observed_value = 100

[[record]]
molecule = "CC(CO)Nc1nc(SCc2cccc(F)c2F)nc2cnccc12 (centres unmarked)"
target_desc = "CXCR2 (Homo sapiens, UniProt P25025)"
observed_value = 95.75

[[record]]
molecule = "CCCC(C)CSc1nc(NC(C)CO)c2nn[nH]c2n1 (centres unmarked)"
target_desc = "CXCR2 (Homo sapiens, UniProt P25025)"
observed_value = 98.49

[[record]]
molecule = "CC(CO)Nc1nc(SCc2cccc(F)c2F)nc2ncsc12 (centres unmarked)"
target_desc = "CXCR2 (Homo sapiens, UniProt P25025)"
observed_value = 97.6

[[record]]
molecule = "CC(CO)Nc1nc(SCc2cccc(F)c2F)nc2nc(N)sc12 (centres unmarked)"
target_desc = "CXCR2 (Homo sapiens, UniProt P25025)"
observed_value = 100


====

Listed below: pIC50 values for each entry.
- Target desc: CXCR2 (Homo sapiens)
- Construct: expressed in transfected cells
- Assay name: NanoBRET-based G protein activation inhibition assay (REGA-SIGN Gαi1 dissociation) in HEK293A.CXCR2 cells
- Format: cell-based
- Experimental context: CXCL6 at EC80; mean, n = 3
pIC50: −log10 of the molar value.
Test readout: pIC50

[[record]]
compound = "CC(CO)Nc1nc(SCc2cccc(F)c2F)nc2cnccc12 (stereo not drawn)"
observed_value = 5.12

[[record]]
compound = "CCCC(C)CSc1nc(NC(C)CO)c2nn[nH]c2n1 (stereo not drawn)"
observed_value = "< 4.82"

[[record]]
compound = "CC(CCO)Nc1nc(SCc2cccc(F)c2F)nc2[nH]nnc12 (stereo not drawn)"
observed_value = "< 4.82"

[[record]]
compound = "CC(CO)Nc1nc(SCc2cccc(F)c2F)nc2ncsc12 (stereo not drawn)"
observed_value = "< 4.82"

[[record]]
compound = "CC(CO)Nc1nc(SCc2cccc(F)c2F)nc2oncc12 (stereo not drawn)"
observed_value = 5.97

[[record]]
compound = "CC(CO)Nc1nc(SCc2cccc(F)c2F)nc2[nH]cnc12 (stereo not drawn)"
observed_value = "< 4.82"

